- System: Hepatotoxicity
- assay-text: FDA HLAED, gamma-glutamyl transferase (GGT) increase
- conditions: human

molecule | GGT Increase - Number of Reports
C#CCN(C)[C@H](C)Cc1ccccc1 | >= 4
CC(=O)O[C@@]12CO[C@@H]1C[C@H](O)[C@@]1(C)C(=O)[C@H](O)C3=C(C)[C@@H](OC(=O)[C@H](O)[C@@H](NC(=O)OC(C)(C)C)c4ccccc4)C[C@@](O)([C@@H](OC(=O)c4ccccc4)[C@H]21)C3(C)C.O.O.O | < 4
CC1(C)S[C@@H]2[C@H](NC(=O)C3(N)CCCCC3)C(=O)N2[C@H]1C(=O)O | < 4
COc1ccc(Cl)cc1C(=O)NCCc1ccc(S(=O)(=O)NC(=O)NC2CCCCC2)cc1 [GLYBURIDE] | < 4
CC(C)(O/N=C(\C(=O)N[C@@H]1C(=O)N2C(C(=O)[O-])=C(C[n+]3ccccc3)CS[C@H]12)c1csc(N)n1)C(=O)O | < 4
Cc1ccc(Cl)c(Nc2ccccc2C(=O)O)c1Cl | < 4
CCOC(=O)c1cncn1[C@H](C)c1ccccc1 [ETOMIDATE] | < 4
COc1ccc2cc(CCC(C)=O)ccc2c1 | >= 4

----------
- System: Hepatotoxicity
- assay-text: FDA HLAED, alkaline phosphatase increase
- conditions: human
experimental-readout: Alkaline Phosphatase Increase - Activity Score

molecule | readout-value
CC(N)C12CC3CC(CC(C3)C1)C2 (centres undefined) [RIMANTADINE] | Inactive
O=C(O)c1cn(C2CC2)c2cc(N3CCNCC3)c(F)cc2c1=O [CIPROFLOXACIN] | Inactive
Clc1ccc(CCC(Cn2ccnc2)Sc2c(Cl)cccc2Cl)cc1 (centres undefined) [BUTOCONAZOLE] | Inactive
CN(C)CCC=C1c2ccccc2COc2ccccc21 [DOXEPIN] | Active
COCCc1ccc(OCC(O)CNC(C)C)cc1 (centres undefined) [METOPROLOL] | Inactive
N=C(N)NCC1COC2(CCCCC2)O1 (centres undefined) | Inactive
COCCCC/C(=N\OCCN)c1ccc(C(F)(F)F)cc1 [FLUVOXAMINE] | Inactive
NC(=O)N1c2ccccc2C=Cc2ccccc21 [CARBAMAZEPINE] | Marginally Active
CCN[C@@H]1C[C@H](N)[C@@H](O[C@H]2OC(CN)=CC[C@H]2N)[C@H](O)[C@H]1O[C@H]1OC[C@](C)(O)[C@H](NC)[C@H]1O [NETILMICIN] | Inactive
COc1ccc(OC)c(C(O)CNC(=O)CN)c1 (centres undefined) [MIDODRINE] | Inactive
CC(C)(C)NCC(O)COc1cccc2c1CCC(=O)N2 (centres undefined) [CARTEOLOL] | Inactive
CC(C)(C)NC(=O)[C@@H]1C[C@@H]2CCCC[C@@H]2CN1C[C@@H](O)[C@H](Cc1ccccc1)NC(=O)[C@H](CC(N)=O)NC(=O)c1ccc2ccccc2n1 | Inactive
O=[N+]([O-])O[C@@H]1CO[C@H]2[C@@H]1OC[C@@H]2O [ISOSORBIDE MONONITRATE] | Inactive
O=C1CN=C(c2ccccc2)c2cc(Cl)ccc2N1CC(F)(F)F [HALAZEPAM] | Inactive
CN(C)c1nc(N(C)C)nc(N(C)C)n1 [ALTRETAMINE] | Inactive
CC[C@H]1OC(=O)[C@H](C)[C@@H](O[C@H]2C[C@@](C)(OC)[C@@H](O)[C@H](C)O2)[C@H](C)[C@@H](O[C@@H]2O[C@H](C)C[C@H](N(C)C)[C@H]2O)[C@](C)(O)C[C@@H](C)C(=O)[C@H](C)[C@@H](O)[C@]1(C)O [ERYTHROMYCIN] | Active
N[C@@H](C(=O)N[C@@H]1C(=O)N2C(C(=O)O)=C(Cl)CS[C@H]12)c1ccccc1 [CEFACLOR ANHYDROUS] | Marginally Active
CC[C@H]1OC(=O)[C@H](C)[C@@H](O[C@H]2C[C@@](C)(OC)[C@@H](O)[C@H](C)O2)[C@H](C)[C@@H](O[C@@H]2O[C@H](C)C[C@H](N(C)C)[C@H]2O)[C@](C)(O)C[C@@H](C)[C@@H]2N[C@@H](COCCOC)O[C@H]([C@H]2C)[C@]1(C)O [DIRITHROMYCIN] | Inactive
C[C@](N)(Cc1ccc(O)cc1)C(=O)O [METYROSINE] | Inactive
CC1=C(/C=C/C(C)=C/C=C/C(C)=C\C(=O)O)C(C)(C)CCC1 [ISOTRETINOIN] | Active
O=S(=O)([O-])CCS.[Na+] [MESNA] | Inactive
CC(CCc1ccccc1)NCC(O)c1ccc(O)c(C(N)=O)c1 (centres undefined) [LABETALOL] | Inactive
CCCNCC(O)COc1ccccc1C(=O)CCc1ccccc1 (centres undefined) [PROPAFENONE] | Active
COCC1=C(C(=O)OC(C)OC(=O)OC(C)C)N2C(=O)[C@@H](NC(=O)/C(=N\OC)c3csc(N)n3)[C@H]2SC1 (some centres undefined) [CEFPODOXIME PROXETIL] | Inactive
